# target-or-test-system: Beta-3 adrenergic receptor (Homo sapiens, UniProt P13945)
# Sequence (P13945 whole entry): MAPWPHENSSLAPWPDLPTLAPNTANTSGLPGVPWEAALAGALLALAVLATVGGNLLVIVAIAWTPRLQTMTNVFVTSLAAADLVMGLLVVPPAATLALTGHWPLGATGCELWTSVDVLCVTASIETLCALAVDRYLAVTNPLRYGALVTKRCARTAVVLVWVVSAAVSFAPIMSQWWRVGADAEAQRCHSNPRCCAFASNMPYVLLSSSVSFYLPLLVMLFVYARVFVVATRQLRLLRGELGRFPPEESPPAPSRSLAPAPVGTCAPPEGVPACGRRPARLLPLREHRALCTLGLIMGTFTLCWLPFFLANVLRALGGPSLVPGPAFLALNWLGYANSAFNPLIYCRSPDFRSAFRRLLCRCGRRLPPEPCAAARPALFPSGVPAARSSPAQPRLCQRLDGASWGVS
# procedure-summary: DRUGMATRIX: Adrenergic beta3 radioligand binding (ligand: [125I] Cyanopindolol)
# Type: cell membranes, HEK293, Membrane
# particulars: hek293; Not Active = under 50% inhibition at 10 µM
value-type: IC50

compound="C[S+]([O-])c1ccc(-c2nc(-c3ccncc3)c(-c3ccc(F)cc3)[nH]2)cc1 (centres undefined)" target_or_test_system="Beta-3 adrenergic receptor (Homo sapiens, UniProt P13945)" value_type=IC50 data_value="Not Active"
compound=CN1CCN(C(c2ccccc2)c2ccccc2)CC1 target_or_test_system="Beta-3 adrenergic receptor (Homo sapiens, UniProt P13945)" value_type=IC50 data_value="Not Active"
compound="O=c1[nH]c(=O)n(C2CCCO2)cc1F (centres undefined)" target_or_test_system="Beta-3 adrenergic receptor (Homo sapiens, UniProt P13945)" value_type=IC50 data_value="Not Active"
compound="CC(=O)OCC(=O)[C@@]1(O)CC[C@H]2[C@@H]3CCC4=CC(=O)CC[C@]4(C)[C@@]3(F)[C@@H](O)C[C@@]21C [FLUDROCORTISONE ACETATE]" target_or_test_system="Beta-3 adrenergic receptor (Homo sapiens, UniProt P13945)" value_type=IC50 data_value="Not Active"
compound=O=C(O)COc1ccc(C(=O)c2cccs2)c(Cl)c1Cl target_or_test_system="Beta-3 adrenergic receptor (Homo sapiens, UniProt P13945)" value_type=IC50 data_value="Not Active"
compound=C[N+](C)(C)C[C@H](O)CC(=O)[O-] target_or_test_system="Beta-3 adrenergic receptor (Homo sapiens, UniProt P13945)" value_type=IC50 data_value="Not Active"
compound=Oc1ccc2c3c1O[C@H]1[C@@H](O)CC[C@@]4(O)[C@@H](C2)N(CC2CCC2)CC[C@]314 target_or_test_system="Beta-3 adrenergic receptor (Homo sapiens, UniProt P13945)" value_type=IC50 data_value="Not Active"
compound="O=C(O)CCNC(=O)c1ccc(/N=N/c2ccc(O)c(C(=O)O)c2)cc1 [BALSALAZIDE]" target_or_test_system="Beta-3 adrenergic receptor (Homo sapiens, UniProt P13945)" value_type=IC50 data_value="Not Active"
compound="CS(=O)(=O)Nc1ccc([N+](=O)[O-])cc1Oc1ccccc1 [NIMESULIDE]" target_or_test_system="Beta-3 adrenergic receptor (Homo sapiens, UniProt P13945)" value_type=IC50 data_value="Not Active"
compound="CCn1cc(C(=O)O)c(=O)c2cc(F)c(N3CCNC(C)C3)c(F)c21 (centres undefined)" target_or_test_system="Beta-3 adrenergic receptor (Homo sapiens, UniProt P13945)" value_type=IC50 data_value="Not Active"
compound="CC(=N)S [THIOACETAMIDE]" target_or_test_system="Beta-3 adrenergic receptor (Homo sapiens, UniProt P13945)" value_type=IC50 data_value="Not Active"
compound=CN(C)C(=N)NC(=N)N target_or_test_system="Beta-3 adrenergic receptor (Homo sapiens, UniProt P13945)" value_type=IC50 data_value="Not Active"
compound=CN1[C@@H]2CC[C@H]1C[C@@H](OC(c1ccccc1)c1ccccc1)C2 target_or_test_system="Beta-3 adrenergic receptor (Homo sapiens, UniProt P13945)" value_type=IC50 data_value="Not Active"
compound=O=C(c1ccccc1F)N1CCC(Cc2ccccc2)CC1 target_or_test_system="Beta-3 adrenergic receptor (Homo sapiens, UniProt P13945)" value_type=IC50 data_value="Not Active"
compound=O=C(O)CC(O)(CC(=O)O)C(=O)O target_or_test_system="Beta-3 adrenergic receptor (Homo sapiens, UniProt P13945)" value_type=IC50 data_value="Not Active"
compound=CN1C[C@@H]2C[C@H]1CN2c1cc2c(cc1F)c(=O)c(C(=O)O)cn2C1CC1 target_or_test_system="Beta-3 adrenergic receptor (Homo sapiens, UniProt P13945)" value_type=IC50 data_value="Not Active"
compound="CC(C)(C(=O)O)c1ccc(C(O)CCCN2CCC(C(O)(c3ccccc3)c3ccccc3)CC2)cc1 (centres undefined) [FEXOFENADINE]" target_or_test_system="Beta-3 adrenergic receptor (Homo sapiens, UniProt P13945)" value_type=IC50 data_value="Not Active"
compound=N[C@@H](Cn1ccc(=O)c(O)c1)C(=O)O target_or_test_system="Beta-3 adrenergic receptor (Homo sapiens, UniProt P13945)" value_type=IC50 data_value="Not Active"
compound=C[C@@H]1O[C@@H](O[C@H]2C[C@@H](O)[C@]3(CO)[C@H]4[C@H](O)C[C@]5(C)[C@@H](C6=CC(=O)OC6)CC[C@]5(O)[C@@H]4CC[C@]3(O)C2)[C@H](O)[C@H](O)[C@H]1O target_or_test_system="Beta-3 adrenergic receptor (Homo sapiens, UniProt P13945)" value_type=IC50 data_value="Not Active"
compound=CC(=O)Oc1ccccc1C(=O)O target_or_test_system="Beta-3 adrenergic receptor (Homo sapiens, UniProt P13945)" value_type=IC50 data_value="Not Active"
compound="NC(=O)c1cccnc1 [NIACINAMIDE]" target_or_test_system="Beta-3 adrenergic receptor (Homo sapiens, UniProt P13945)" value_type=IC50 data_value="Not Active"
compound=C[C@]12CC[C@@H]3c4ccc(O)cc4CC[C@H]3[C@@H]1C[C@@H](O)[C@@H]2O target_or_test_system="Beta-3 adrenergic receptor (Homo sapiens, UniProt P13945)" value_type=IC50 data_value="Not Active"
compound="Nc1ccc(S(=O)(=O)NC(=O)c2ccccc2)cc1 [SULFABENZAMIDE]" target_or_test_system="Beta-3 adrenergic receptor (Homo sapiens, UniProt P13945)" value_type=IC50 data_value="Not Active"
compound=O=c1c(-c2ccc(O)cc2)coc2cc(O)cc(O)c12 target_or_test_system="Beta-3 adrenergic receptor (Homo sapiens, UniProt P13945)" value_type=IC50 data_value="Not Active"
compound=O=C(O)CCCc1cccs1 target_or_test_system="Beta-3 adrenergic receptor (Homo sapiens, UniProt P13945)" value_type=IC50 data_value="Not Active"
compound=C[C@]12CC[C@H]3[C@@H](CCC4=CC(=O)CC[C@@H]43)[C@@H]1CC[C@@H]2O target_or_test_system="Beta-3 adrenergic receptor (Homo sapiens, UniProt P13945)" value_type=IC50 data_value="Not Active"
compound=NCCCNCCSP(=O)(O)O target_or_test_system="Beta-3 adrenergic receptor (Homo sapiens, UniProt P13945)" value_type=IC50 data_value="Not Active"
compound="Cc1cccc(C)c1NC(=O)C1CCCCN1C (centres undefined) [MEPIVACAINE]" target_or_test_system="Beta-3 adrenergic receptor (Homo sapiens, UniProt P13945)" value_type=IC50 data_value="Not Active"
compound=CC[C@H]1[C@@H]2C[C@H]3[C@@H]4N(C)c5ccccc5[C@]45C[C@@H]([C@@H]2[C@H]5O)N3[C@@H]1O target_or_test_system="Beta-3 adrenergic receptor (Homo sapiens, UniProt P13945)" value_type=IC50 data_value="Not Active"
compound="C[C@H]1O[C@H](O[C@H]2[C@H](O)[C@@H](O)[C@@H](O[C@H]3[C@H](O)[C@@H](O)C(O)O[C@@H]3CO)O[C@@H]2CO)[C@H](O)[C@@H](O)[C@@H]1N[C@H]1C=C(CO)[C@@H](O)[C@H](O)[C@H]1O (some centres undefined)" target_or_test_system="Beta-3 adrenergic receptor (Homo sapiens, UniProt P13945)" value_type=IC50 data_value="Not Active"
compound=CC(C)c1c(C(=O)Nc2ccccc2)c(-c2ccccc2)c(-c2ccc(F)cc2)n1CC[C@@H](O)C[C@@H](O)CC(=O)O target_or_test_system="Beta-3 adrenergic receptor (Homo sapiens, UniProt P13945)" value_type=IC50 data_value="Not Active"
compound=CC(C)NC[C@@H](O)COc1cccc2ccccc12 target_or_test_system="Beta-3 adrenergic receptor (Homo sapiens, UniProt P13945)" value_type=IC50 data_value="Not Active"
compound=N=C(N)c1ccc(OCCCCCOc2ccc(C(=N)N)cc2)cc1 target_or_test_system="Beta-3 adrenergic receptor (Homo sapiens, UniProt P13945)" value_type=IC50 data_value="Not Active"
compound=C[C@H]1COc2c(N3CCN(C)CC3)c(F)cc3c(=O)c(C(=O)O)cn1c23.C[C@H]1COc2c(N3CCN(C)CC3)c(F)cc3c(=O)c(C(=O)O)cn1c23.O target_or_test_system="Beta-3 adrenergic receptor (Homo sapiens, UniProt P13945)" value_type=IC50 data_value="Not Active"
